Exercise: state measured Relative cell viability (%) for each of the molecules provided.
- System: HT29
- measurement-context: 72 h, relative to DMSO; 10 µM
Structures can show the parent of a compound that is named as a salt.
Answers are plain numbers, in %.

Guide cases for Relative cell viability (%), answers given:
INSERT INTO results (molecule, value_kind, number) VALUES
  ('N[C@@H](Cc1cc(I)c(Oc2cc(I)c(O)c(I)c2)c(I)c1)C(=O)O', 'Relative cell viability (%)', 67.96),
  ('N=C(N)c1ccc2cc(OC(=O)c3ccc(N=C(N)N)cc3)ccc2c1 [Nafamostat Mesylate]', 'Relative cell viability (%)', 66.51),
  ('Cc1c(F)cc(C(=O)NC2CC2)cc1-c1ccc(C(=O)NCC(C)(C)C)cn1 [Losmapimod (GW856553X)]', 'Relative cell viability (%)', 94.44),
  ('CCOC(=O)[C@H](CCc1ccccc1)N[C@H]1CS[C@H](c2cccs2)CN(CC(=O)O)C1=O [Temocapril HCl]', 'Relative cell viability (%)', 117.3),
  ('CN1CCC[C@@H]1CCO[C@](C)(c1ccccc1)c1ccc(Cl)cc1 [Clemastine Fumarate]', 'Relative cell viability (%)', 16.95),
  ('Cc1c(O)cccc1C(=O)N[C@@H](CSc1ccccc1)[C@H](O)CN1C[C@H]2CCCC[C@H]2C[C@H]1C(=O)NC(C)(C)C [Nelfinavir Mesylate]', 'Relative cell viability (%)', 23.94);

Batch lookup, Relative cell viability (%) per entry.
1. CC(C)C[C@H](NC(=O)[C@H](CCc1ccccc1)NC(=O)CN1CCOCC1)C(=O)N[C@@H](Cc1ccccc1)C(=O)N[C@@H](CC(C)C)C(=O)[C@@]1(C)CO1
2. Cc1ccnc2c1NC(=O)c1cccnc1N2C1CC1
3. CCCc1cc(C(N)=S)ccn1 [Protionamide]
4. O=C(O)c1ccccc1Nc1cccc(C(F)(F)F)c1
5. CCn1c(=O)c(-c2cc[nH]n2)cc2c(C)nc(N)nc21
6. COc1cc2c(cc1Cc1cccc(Cl)c1F)c(=O)c(C(=O)O)cn2[C@H](CO)C(C)C

[A]
1. 15.53
2. 94.49
3. 123.7
4. 80.303
5. 31.62
6. 58.4

###

- Tested on: HT29
- measurement-context: 72 h, relative to DMSO; 10 µM
// NB: equality with 90% counts as 0; only Relative cell viability (%) strictly below is 1

INSERT INTO results (compound, class_assignment) VALUES
  ('COc1c(N2CCNC(C)C2)c(F)cc2c(=O)c(C(=O)O)cn(C3CC3)c12 (stereo not shown)', 0),
  ('CCCCCCOC(=O)NC(=N)c1ccc(NCc2nc3cc(C(=O)N(CCC(=O)OCC)c4ccccn4)ccc3n2C)cc1 [Dabigatran Etexilate]', 0),
  ('Cc1ccc([C@@H]2O[C@H](CO)[C@@H](O)[C@H](O)[C@H]2O)cc1Cc1ccc(-c2ccc(F)cc2)s1', 1),
  ('NC(=O)c1cc(N2CC2)c([N+](=O)[O-])cc1[N+](=O)[O-]', 0),
  ('CC(=O)Oc1ccccc1C(=O)O', 1);

[Q] Here's an entry: O=c1cc[nH]c(=O)[nH]1 . Is its Relative cell viability (%) below 90%?
[A] 1

[Q] And then Clc1ccc(C(Cn2ccnc2)OCc2ccsc2Cl)c(Cl)c1 (stereo not shown) , what is it?
[A] 0

[Q] And then CC(=O)O[C@]1(C(C)=O)CC[C@H]2[C@@H]3C=C(Cl)C4=CC(=O)[C@@H]5C[C@@H]5[C@]4(C)[C@H]3CC[C@@]21C [Cyproterone Acetate] , what is it?
[A] 0

[Q] And then CCc1cc(/C(C)=N/OCc2ccc(C3CCCCC3)c(C(F)(F)F)c2)ccc1CN1CC(C(=O)O)C1 [BAF312 (Siponimod)] , what is it?
[A] 0

[Q] And then c1ccc2[nH]c(-c3cscn3)nc2c1 , what is it?
[A] 1

[Q] And then COc1ccccc1N1CCN(CC(O)COc2cccc3ccccc23)CC1 (stereo not shown) , what is it?
[A] 0

[Q] And then Cc1c(-c2cnccn2)ssc1=S , what is it?
[A] 1

[Q] And then CCCN(CCC)C(=O)C1=Cc2ccc(-c3ccc(C(=O)N4CCCC4)cc3)cc2N=C(N)C1 , what is it?
[A] 1

###

- System: HT29
- measurement-context: 72 h, relative to DMSO; 10 µM
Exercise: state measured Relative cell viability (%) for each of the compounds provided.
Give bare numbers, in %.

Guide cases for Relative cell viability (%), answers given:
INSERT INTO measurements (compound, number) VALUES
  ('CNC(=C[N+](=O)[O-])NCCSCc1ccc(CN(C)C)o1', 97.03),
  ('COc1ccc([C@H]2CNC(=O)C2)cc1OC1CCCC1 [S- (+)-Rolipram]', 107.3),
  ('CC(C)C(=O)Nc1ccc([N+](=O)[O-])c(C(F)(F)F)c1 [Flutamide]', 100.9),
  ('NC(=O)c1cnccn1 [Pyrazinamide]', 83.05),
  ('[H]/N=C(/N)NS(=O)(=O)c1ccc(N)cc1', 70.303),
  ('CC1=NN(c2ccc(C)c(C)c2)C(=O)/C1=N\Nc1cccc(-c2cccc(C(=O)O)c2)c1O', 122),
  ('CN1C2=CC(=O)/C(=N\NC(N)=O)C=C2CC1S(=O)(=O)O (stereo not drawn) [Carbazochrome sodium sulfonate (AC-17)]', 50.49),
  ('c1cn2cc(-c3ccc4cn[nH]c4c3)nc(Nc3ccc(N4CCOCC4)cc3)c2n1', 116.2);

Now, please, on to the next compound.
[Q] Could you tell me which Relative cell viability (%) is on file for C[C@H]1COc2c(N3CCN(C)CC3)c(F)cc3c(=O)c(C(=O)O)cn1c23 ?
[A] 124

###

- Tested on: HT29
- measurement-context: ht29 cells, 72 h, 10 µM
Exercise: state measured Relative cell viability (%) for each of the compounds provided.
Give bare numbers, in %.

Guide cases for Relative cell viability (%), answers given:
INSERT INTO measurements (compound, experimental_target, value_kind, number) VALUES
  ('CC[C@H]1OC(=O)[C@H](C)[C@@H](O[C@H]2C[C@@](C)(OC)[C@@H](O)[C@H](C)O2)[C@H](C)[C@@H](O[C@@H]2O[C@H](C)C[C@H](N(C)C)[C@H]2O)[C@](C)(O)C[C@@H](C)[C@@H]2N[C@@H](COCCOC)O[C@H]([C@H]2C)[C@]1(C)O [Dirithromycin]', 'HT29', 'Relative cell viability (%)', 84.85),
  ('C[C@]12Cc3c[nH]nc3C[C@@H]1CC[C@@H]1[C@@H]2CC[C@@]2(C)[C@H]1CC[C@]2(C)O [Stanozolol]', 'HT29', 'Relative cell viability (%)', 83.05),
  ('CCc1c(Cl)c(O)c(Cl)c(O)c1C(=O)O[C@H]1[C@H](O)[C@H](OC)[C@H](OC/C2=C\C=C\C[C@H](O)/C(C)=C/[C@H](CC)[C@@H](O[C@@H]3OC(C)(C)[C@@H](OC(=O)C(C)C)[C@H](O)[C@@H]3O)/C(C)=C/C(C)=C/C[C@@H]([C@@H](C)O)OC2=O)O[C@@H]1C [Fidaxomicin]', 'HT29', 'Relative cell viability (%)', 94.85);

Now, please, on to the next compound.
[Q] What is its Relative cell viability (%) for HT29? Entry: O=C(Nc1nc2cccc(-c3ccc(CN4CCS(=O)(=O)CC4)cc3)n2n1)C1CC1 [Filgotinib (GLPG0634)]
[A] 50.85

###

- System: HT29
- measurement-context: 72 h, relative to DMSO, 10 µM, Relative cell viability (%)
value-kind: Relative cell viability (%)
Note to self: number, then unit, no commentary.

INSERT INTO results (compound, experimental_target, result) VALUES
  ('COc1ccc2nc([S@@+]([O-])Cc3ncc(C)c(OC)c3C)[nH]c2c1 [Esomeprazole Magnesium]', 'HT29', '80.51%'),
  ('CC(C)NCC(O)COc1ccc(CCOCC2CC2)cc1 (centres unmarked) [Betaxolol]', 'HT29', '109.6%');

Batch lookup, Relative cell viability (%) per entry.
1. C[C@@H]1CCN(C(=O)CC#N)C[C@@H]1N(C)c1ncnc2[nH]ccc12 [Tofacitinib (CP-690550,Tasocitinib)]
2. O=C(O)Cc1ccccc1Nc1c(Cl)cccc1Cl [Diclofenac Sodium]
3. COc1cc2nc(N3CCN(C(=O)C4CCCO4)CC3)nc(N)c2cc1OC (centres unmarked) [Terazosin]
4. CC/C(=C(\c1ccccc1)c1ccc(OCCN(C)C)cc1)c1ccccc1 [Tamoxifen]
5. COc1ccccc1Oc1c(NS(=O)(=O)c2ccc(C(C)(C)C)cc2)nc(-c2ncccn2)nc1OCCO [Bosentan]
6. CN1CCN(c2ccc3nc(-c4c(N)c5c(F)cccc5[nH]c4=O)[nH]c3c2)CC1 [Dovitinib (TKI-258) Dilactic Acid]

[A]
1. 51.94%
2. 111.9%
3. 88.03%
4. 18.22%
5. 63.94%
6. 12.62%
